Assay: Drug repurposing screens with cells derived from glioblastoma tumor samples (AID 1345199); note: % is set by controls: 0 for no effect and ±100 for the full control effect; nearly all actives have a fitted effect of over 40% in size
Details: GBM patient neurospheres viability, ATP luminescence, 48 h; at 45.9 µM (top of the series); tumour line D
Procedure: CD133+ cells were isolated from GBM patient biopsies and cultured as neurospheres. Neurospheres from four patients were used to screen the NCATS pharmaceutical collection (NPC) library of approved drugs and bioactive compounds. […] The neurospheres were incubated with drugs for 48 hours in 1536-well format, then assayed with an ATP content cell viability assay. […]
Records with an inconclusive call do not appear. Where a SMILES comes first, the peptide text is derived from it. Bridges are numbered along the chain shown (N, C = ends). [ ]: non-standard residue; d: D form. The star is where a group is joined. Dab(CH2SO3H) = N[C@@H](CCNCS(=O)(=O)O)C(=O)O; X3 = CC[C@@H](C)CCCCC(=O)*; Dab = NCC[C@H](N)C(=O)O
Listed below: activity, negative = cell killing values for each entry.
Use % as the unit, but write only the number.

OC[C@H]1O[C@@H](n2cnc3c2NC=NC[C@H]3O)C[C@@H]1O; -21
OCCO[C@@H]1[C@@H](O)[C@H](O)[C@@H](CO)O[C@@H]1O; -11.5
CC1(C)S[C@@H]2[C@H](NC(=O)C(C(=O)O)c3ccsc3)C(=O)N2[C@H]1C(=O)O (stereo partly specified); -0.709
CC[C@@H](C)CCCCC(=O)N[C@@H](CCNCS(=O)(=O)O)C(=O)N[C@H](C(=O)N[C@@H](CCNCS(=O)(=O)O)C(=O)N[C@H]1CCNC(=O)[C@H]([C@@H](C)O)NC(=O)[C@H](CCNCS(=O)(=O)O)NC(=O)[C@H](CCNCS(=O)(=O)O)NC(=O)[C@H](CC(C)C)NC(=O)[C@@H](CC(C)C)NC(=O)[C@H](CCNCS(=O)(=O)O)NC1=O)[C@@H](C)O (X3-[Dab(CH2SO3H)]T[Dab(CH2SO3H)][Dab][Dab(CH2SO3H)][dL]L[Dab(CH2SO3H)][Dab(CH2SO3H)]T; lactam 4-C); 10.8
O=C(O)CN(CCN(CC(=O)O)CC(=O)O)CC(=O)O; -15

Then there is this compound:
q: // activity, negative = cell killing lookup, key: COC(=O)CCC(=O)CN
a: -18.7

###

Tested on: Zika virus NS2B-NS3 protease (unlinked complex)
Assay: Primary screen GU Rhodamine qHTS for Zika virus inhibitors: Unlinked NS2B-NS3 protease assay (AID 1347159); note: nearly all actives have a fitted effect of over 60% in size; note: potency is the fitted concentration of half-maximal effect
Conditions: Recombinant ZIKV NS2B-NS3 protease, Rhodamine110 substrate fluorescence; series mostly up to 107 µM
Results filed as inconclusive are left out. The source made the active and inactive calls. Calls come from the whole dose curve; as a rule, active = well fitted inhibition curve with a large enough effect; inconclusive = small, poorly fitted or top-dose-only effect; inactive = no such curve, though single readings can be large or run the other way.
readout-kind: Potency

Illustrative cases are given below, each with its answer.
CC1CC(=O)C2=C(O1)OC1(C)CCC3C(C)(C)C=CC(=O)C3(C)C1C2 (stereo not drawn); 28.2 µM (active)
CCCC1=CC2=C(CO1)C(=O)C(C)(OC(=O)c1c(C)cc(OC)cc1O)C(O)C2 (stereo not drawn); inactive
O=C(OCc1cccc(O)c1O[C@@H]1O[C@H](CO)[C@@H](O)[C@H](O)[C@H]1O)C1(O)C(=O)C2C=CC1C1C=CC(=O)C(O)(C(=O)OCc3cccc(O)c3O[C@@H]3O[C@H](CO)[C@@H](O)[C@H](O)[C@H]3O)C21 (stereo partly drawn); inactive
O=C(NN1CCCCC1)c1nn(-c2ccc(Cl)cc2Cl)c(-c2ccc(C#Cc3ccc(C(F)(F)F)cc3)s2)c1CNS(=O)(=O)N1CCCC1; inactive
COc1ccc2c(c1O)OC[C@H]1c3ccc(O)cc3O[C@@H]21; inactive
CCOc1c2c(c(OCC)c3ccccc13)C(=O)N(c1ccc(CC(=O)NS(=O)(=O)c3ccccc3)cc1)C2; 3.98 µM (active)
CC1(C)CCC[C@@]2(C)[C@H]1[C@H](O)C=C1COC(=O)[C@@]12O; inactive

q: Tell me the measured Potency of CN1CC[C@@H](NC(=O)Nc2ccc(C#N)cc2)C[C@@H]1c1nc2ccccc2[nH]1 , please.
a: inactive

###

Test system: CASKI
Experiment: Primary qHTS to identify gynecologic anti-cancer compounds using libraries of approved drugs and bioactive compounds (AID 1345084); note: % is set by controls: 0 for no effect and ±100 for the full control effect; nearly all actives have a fitted effect of over 55% in size
Details: Gynecologic cancer cell panel viability, ATPlite luminescence, 48 h; series mostly up to 57.5 µM
Records with an inconclusive call do not appear. Active and inactive are the calls of the source. Calls follow the shape of the dose curve; as a rule, active = well fitted cell-killing curve with a large enough effect; inconclusive = small, poorly fitted or top-dose-only effect, or effect the other way; inactive = flat fitted curve, though single readings scatter.
readout-kind: activity change, negative = cytotoxicity

Previously resolved entries follow.
C[C@]1(O)CC[C@@H]2C(C(=O)O)=CO[C@@H](O[C@@H]3O[C@H](COC(=O)c4ccc(O)cc4)[C@@H](O)[C@H](O)[C@H]3O)[C@@H]21; inactive
CC(=O)C1CCC2(C)C3=C(CCC12C)C1(C)CCC(=O)C(C)(C)C1CC3 (stereo unspecified); inactive
CC(=O)OC[C@@]12[C@H](O)C[C@]3(C)C(=CCC4[C@@]5(C)CC[C@H](O[C@@H]6O[C@H](C(=O)O)[C@@H](O[C@@H]7O[C@H](CO)[C@@H](O)[C@H](O)[C@H]7O)[C@H](O)[C@H]6O[C@@H]6O[C@H](CO)[C@@H](O)[C@H](O)[C@H]6O)[C@](C)(CO)C5CC[C@]43C)[C@@H]1CC(C)(C)[C@@H](OC(C)=O)[C@@H]2O (stereo partly specified); 5.42% [at 11.6 µM] (inactive)
CC(=O)c1c(C)cc(O[C@@H]2O[C@H](CO)[C@@H](O)[C@H](O)[C@H]2O)cc1O; inactive

q: Lab note: need activity change, negative = cytotoxicity with CASKI for entry CC(O)C(O)/C=C/C=C/C(=O)O[C@@H]1C=C2COC(=O)[C@]2(O)[C@@]2(C)CCCC(C)(C)C12 (stereo partly specified) , please look it up.
a: inactive

q: Recall the recorded activity change, negative = cytotoxicity for COc1cc([C@H]2OC[C@]3(OC(C)=O)[C@@H](c4ccc(O[C@@H]5O[C@H](CO)[C@@H](O)[C@H](O)[C@H]5O)c(OC)c4)OC[C@H]23)ccc1O with CASKI and state it.
a: inactive

###

System: KB-3-1
Assay: Cytotoxic Profiling of Annotated Libraries Using Quantitative High-Throughput Screening (AID 1296008); note: % is set by controls: 0 for no effect and ±100 for the full control effect; nearly all actives have a fitted effect of over 60% in size
Conditions: Five cell lines viability, CellTiter-Glo ATP luminescence, 48-72 h; active compounds read low
Method: Cell-based phenotypic screening is a commonly used approach to discover biological pathways, novel drug targets, chemical probes and high-quality hit-to-lead molecules. […] A pintool (Kalypsys) was used to transfer 23 nL of compound solution to the 1536-well assay plates. […] Plates were left at room temperature for 10 min before imaging the ATP-coupled luminescence using a ViewLux microplate imager (PerkinElmer, Waltham, MA).
Inconclusive results are not listed.
readout-kind: max response (%)
Please respond with the number in % and leave the unit unwritten.

Please review the entries below; each comes with its answer.
CCn1c2ccccc2c2cc(CNC)ccc21; -23.4
COC1(CC(C)C)NC(=O)C(O)(Cc2ccccc2)NC1=O (stereo not given); -4.71
C=CCc1ccc(O[C@@H]2O[C@H](CO[C@@H]3O[C@@H](C)[C@H](O)[C@@H](O)[C@H]3O)[C@@H](O)[C@H](O)[C@H]2O)cc1; 2.9

q: For NCc1ccc(OCCCc2sc(-c3ccc4c(c3)/C(=N/Nc3nc5ccccc5s3)CCC4)nc2C(=O)O)cc1 , what is its reported max response?
a: -25.7

q: Need max response of COc1cc(/C=C/C(=O)OC2[C@H](O)CC(O)(C(=O)O)C[C@H]2O)ccc1O (stereo not given in full) , thanks.
a: 0.663

q: // lookup max response for O=C(O)Cc1nn(Cc2nc3cc(C(F)(F)F)ccc3s2)c(=O)c2nccnc12
a: 9.35

q: I would be grateful if you could share the reported max response for COC1=CC(=O)C[C@@H](C)[C@]12Oc1cc(OC)cc(OC)c1C2=O .
a: 5.37

q: What measured max response goes with C=CC1(C)CC(OC(=O)C(=C)C(O)COC(C)=O)C(C(=C)C(=O)OC)C(O)C1C(=C)CO (stereo not given) ?
a: 1.8

q: Which max response reading was recorded for the molecule CC1=CC(=O)C2C(C)(C)CCCC2(C)C12CCC1(COC(=O)C1)O2 (stereo not given) ?
a: 5.32

q: # max response lookup, item CCn1nnnc1NCc1ccc(C(C)C)cc1
a: 2.69

###

System: HaCat
Experiment: Cytotoxic Profiling of Annotated Libraries Using Quantitative High-Throughput Screening (AID 1296008); note: % is set by controls: 0 for no effect and ±100 for the full control effect; nearly all actives have a fitted effect of over 60% in size
Settings: Five cell lines viability, CellTiter-Glo ATP luminescence, 48-72 h; active compounds read low
Records with an inconclusive call do not appear.
readout-kind: max response (%)
Write down the numeric answer in % and omit the unit.

// known answers, use as guide
C=CC1(C)CC(OC(=O)C(=C)C(O)COC(C)=O)C(C(=C)C(=O)OC)C(O)C1C(=C)CO (stereo unspecified); -1.47
O=C(/C=C/c1ccc(O)cc1)O[C@H]1[C@@H]2C=CO[C@@H](O[C@@H]3O[C@H](CO)[C@@H](O)[C@H](O)[C@H]3O)[C@@H]2[C@@]2(CO)O[C@@H]12; 1.73
OC[C@H]1O[C@@H](n2cnc3c(NCc4ccc(O)cc4)ncnc32)[C@H](O)[C@@H]1O; -13.2

q: Requested field: max response. Item: CN1C(=O)c2ccccc2-n2c(nc3ccccc3c2=O)[C@@]12O[C@H]2c1ccccc1
a: -0.431

q: Form field: reported max response of COC1C2=C(COC2=O)C2(C)CCCC(C)(CO)C2C1OC(=O)c1ccccc1 (stereo unspecified)
a: -2.64
